Cited source: patent US8822530B2

TARGET_DESC: CCR2 receptor (Homo sapiens, UniProt P41597)
Sequence (P41597 whole entry): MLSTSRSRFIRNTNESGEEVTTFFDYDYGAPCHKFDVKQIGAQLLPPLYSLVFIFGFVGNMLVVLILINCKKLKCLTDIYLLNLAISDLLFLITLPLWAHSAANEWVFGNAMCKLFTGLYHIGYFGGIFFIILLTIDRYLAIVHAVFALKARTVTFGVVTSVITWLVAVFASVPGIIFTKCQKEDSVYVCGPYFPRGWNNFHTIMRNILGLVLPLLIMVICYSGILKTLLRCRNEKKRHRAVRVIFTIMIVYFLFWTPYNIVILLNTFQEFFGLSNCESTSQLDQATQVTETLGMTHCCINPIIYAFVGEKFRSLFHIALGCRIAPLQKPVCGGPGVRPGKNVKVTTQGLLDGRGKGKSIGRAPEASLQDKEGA
ASSAY_METHOD_TEXT: Calcium activity assay on FLIPR Tetra in HEK-Gqi5 cells stably expressing CCR2
pIC50: −log10 of the molar value.

{"SMILES_REPRESENTATION": "CS(=O)(=O)Nc1cccc(CSc2ccc(Cl)cc2NS(=O)(=O)c2cc3ccccc3o2)c1", "pIC50": 5.89}
{"SMILES_REPRESENTATION": "NC(=O)c1ccccc1CSc1ccc(Cl)cc1NS(=O)(=O)c1ccc(Cl)c(C(F)(F)F)c1", "pIC50": 6.78}
{"SMILES_REPRESENTATION": "CC(C)(C)OC(=O)CNC(=O)c1ccc(CS(=O)(=O)c2ccc(Cl)cc2NS(=O)(=O)c2ccc(Cl)c(C(F)(F)F)c2)cc1", "pIC50": 5.57}
{"SMILES_REPRESENTATION": "CCN(C)C(=O)CCS(=O)(=O)c1ccc(Cl)cc1NS(=O)(=O)c1ccc(Cl)cc1F", "pIC50": 5.65}

---

TARGET_DESC: CCR2 receptor (Homo sapiens)
Construct: expressed in transfected cells
ASSAY_METHOD_TEXT: Calcium activity assay on FLIPR Tetra in HEK-Gqi5 cells stably expressing CCR2
Assay type: cell-based

{"COMPOUND": "COC(=O)c1cccc(CS(=O)(=O)c2ccc(Cl)cc2NS(=O)(=O)c2ccc(Cl)c(C(F)(F)F)c2)c1", "TARGET_DESC": "CCR2 receptor (Homo sapiens)", "RESULT_UNITS": "%", "CCR2 % ANTAGONISM": 55}
{"COMPOUND": "CN(C)C(=O)c1ccccc1CSc1ccc(Cl)cc1NS(=O)(=O)c1ccc(Cl)c(C(F)(F)F)c1", "TARGET_DESC": "CCR2 receptor (Homo sapiens)", "RESULT_UNITS": "%", "CCR2 % ANTAGONISM": 71}
{"COMPOUND": "O=C(O)CNC(=O)c1ccc(CSc2ccc(Cl)cc2NS(=O)(=O)c2ccc(Cl)c(C(F)(F)F)c2)cc1", "TARGET_DESC": "CCR2 receptor (Homo sapiens)", "RESULT_UNITS": "%", "CCR2 % ANTAGONISM": 75}
{"COMPOUND": "O=C(NCCN1CCCC1)c1cccc(C[S+]([O-])c2ccc(Cl)cc2NS(=O)(=O)c2ccc(Cl)c(C(F)(F)F)c2)c1 (centres unmarked)", "TARGET_DESC": "CCR2 receptor (Homo sapiens)", "RESULT_UNITS": "%", "CCR2 % ANTAGONISM": 105}
{"COMPOUND": "CCN(C)C(=O)CCS(=O)(=O)c1ccc(Cl)cc1NS(=O)(=O)c1ccc(Cl)cc1F", "TARGET_DESC": "CCR2 receptor (Homo sapiens)", "RESULT_UNITS": "%", "CCR2 % ANTAGONISM": 87}
{"COMPOUND": "O=C(O)CCSc1ccc(Cl)cc1NS(=O)(=O)c1cc2ccccc2o1", "TARGET_DESC": "CCR2 receptor (Homo sapiens)", "RESULT_UNITS": "%", "CCR2 % ANTAGONISM": 99}
{"COMPOUND": "O=C(O)c1ccccc1C[S+]([O-])c1ccc(Cl)cc1NS(=O)(=O)c1cc2ccccc2o1 (centres unmarked)", "TARGET_DESC": "CCR2 receptor (Homo sapiens)", "RESULT_UNITS": "%", "CCR2 % ANTAGONISM": 98}
{"COMPOUND": "O=C(O)CNC(=O)c1ccc(C[S+]([O-])c2ccc(Cl)cc2NS(=O)(=O)c2ccc(Cl)c(C(F)(F)F)c2)cc1 (centres unmarked)", "TARGET_DESC": "CCR2 receptor (Homo sapiens)", "RESULT_UNITS": "%", "CCR2 % ANTAGONISM": 24}
